For each entry below, report its TGI value.
# Test system: A498 renal
# experiment: NCI tumour cell line growth inhibition, 48 h

Fill in the recorded TGI for this compound, with A498 renal as test system: CCCCCCCCCCCCOC(=N)N1CCOCC1
> 52.3 µM

Fill in the recorded TGI for this compound, with A498 renal as test system: Cc1cc(C)c(CNC(=O)c2cc(Cl)c3c(c2C)O[C@@](C)(C2CCC(N(C)C)CC2)O3)c(=O)[nH]1 (some centres undefined)
> 100 µM

Fill in the recorded TGI for this compound, with A498 renal as test system: N#Cc1cccc(C2SCc3nc4ccccc4n32)c1 (centres undefined)
> 100 µM

Fill in the recorded TGI for this compound, with A498 renal as test system: CC(=O)OCC1OC(NC(=S)Nn2c(-c3ccccc3)nc3ccccc3c2=O)C(OC(C)=O)C(OC(C)=O)C1OC(C)=O (centres undefined)
> 100 µM

Source of measurements: PubChem BioAssay (NCI)
